Test system: HT-29
Assay: NCI tumour cell line growth inhibition, 48 h
Calls of active or inactive are those of the source. Cut-off read from the data, not from the text of the source: active = GI50 up to about 1.1 µM and inactive = higher.
Outcomes: active, inactive

{"COMPOUND": "COc1ccc(CC2C(=O)NC(C)C(=O)N(C)C3Cc4ccc(cc4)Oc4cc(ccc4O)CC(C(=O)NC(C)C(=O)NC(C)C(=O)N2C)N(C)C3=O)cc1 (stereo not drawn)", "QUALITATIVE_LABEL": "active"}
{"COMPOUND": "Cc1ccc(Cl)cc1/N=N/C(=O)NNc1cc(Cl)ccc1C", "QUALITATIVE_LABEL": "inactive"}
{"COMPOUND": "CCCC(O)[C@@H](O)c1ccc2c(c1O)C(=O)c1c(OC)cccc1C2=O (stereo partly drawn)", "QUALITATIVE_LABEL": "inactive"}
{"COMPOUND": "CN1CCN(CCCN2c3ccccc3Sc3ccc(C(F)(F)F)cc32)CC1", "QUALITATIVE_LABEL": "inactive"}
{"COMPOUND": "NC(Cc1c[nH]c2ccccc12)P(=O)(O)O (stereo not drawn)", "QUALITATIVE_LABEL": "inactive"}
{"COMPOUND": "CC1CN=C(NCc2ccccc2)S1 (stereo not drawn)", "QUALITATIVE_LABEL": "inactive"}
{"COMPOUND": "O=S(=O)(N/N=C/c1cccc(/C=N/NS(=O)(=O)c2ccccc2)c1)c1ccccc1", "QUALITATIVE_LABEL": "inactive"}
{"COMPOUND": "CC(=O)NNc1nc(C)c(C(=O)NNC(=O)C(=O)Nc2ccc(Cl)c([N+](=O)[O-])c2)s1", "QUALITATIVE_LABEL": "inactive"}
{"COMPOUND": "C=CCNS(=O)(=O)c1ncnc2[nH]cnc12", "QUALITATIVE_LABEL": "inactive"}
{"COMPOUND": "COc1ccc(C2CC(c3ccc4ccccc4c3O)=NN2C(C)=O)cc1OC (stereo not drawn)", "QUALITATIVE_LABEL": "inactive"}
{"COMPOUND": "CC(NC(=O)C(=O)N/N=C1\\C[C@@H](c2ccccc2)Nc2ccccc21)c1ccccc1 (stereo partly drawn)", "QUALITATIVE_LABEL": "inactive"}
{"COMPOUND": "COc1ccc(C2S/C(=C\\c3cccc([N+](=O)[O-])c3)C(=O)N2NC(=O)Cc2ccccc2)cc1 (stereo not drawn)", "QUALITATIVE_LABEL": "inactive"}
{"COMPOUND": "CCOC(=O)c1ccc(NC(NC(=O)CC)(C(F)(F)F)C(F)(F)F)cc1", "QUALITATIVE_LABEL": "inactive"}
{"COMPOUND": "CCOC(=O)CN1C(=O)c2c(c(C)n(-c3ccccc3)c2C)C1=O", "QUALITATIVE_LABEL": "inactive"}
{"COMPOUND": "O=C1N[C@@H](c2c[nH]c3ccc(Br)cc23)C(=O)N[C@H]1c1c[nH]c2ccc(Br)cc12", "QUALITATIVE_LABEL": "inactive"}
{"COMPOUND": "O=C(O)c1ccccn1", "QUALITATIVE_LABEL": "inactive"}
{"COMPOUND": "NC1CCC2(O)c3ccccc3C2C1 (stereo not drawn)", "QUALITATIVE_LABEL": "inactive"}
{"COMPOUND": "CCCCCCCCCCCCCCCCCCN(C)CC(COC)OP(=O)([O-])OCC[N+](C)(C)C (stereo not drawn)", "QUALITATIVE_LABEL": "inactive"}
{"COMPOUND": "COc1ccc(C(=O)C(C(=O)C(=O)Nc2nccs2)c2ccc(OC)cc2)cc1 (stereo not drawn)", "QUALITATIVE_LABEL": "inactive"}
{"COMPOUND": "Cc1ccc(S[C@@H](C)[C@@](O)(CF)CN(Cc2ccccc2)C(=O)C(F)(F)F)cc1", "QUALITATIVE_LABEL": "inactive"}
{"COMPOUND": "Cc1[nH]c2ccccc2c1-c1n[nH]c(=O)c2ccccc12", "QUALITATIVE_LABEL": "inactive"}
{"COMPOUND": "CSC(=S)N/N=C/c1nccc2ccccc12", "QUALITATIVE_LABEL": "active"}
{"COMPOUND": "NC(CCP(=O)(O)O)C(=O)O (stereo not drawn)", "QUALITATIVE_LABEL": "inactive"}
{"COMPOUND": "NC(=O)C(=O)C1C(=O)N(c2ccccc2)N=C1N (stereo not drawn)", "QUALITATIVE_LABEL": "inactive"}
{"COMPOUND": "O=C(NN1C(=O)CS(=O)(=O)C1c1cccc(F)c1)c1ccncc1 (stereo not drawn)", "QUALITATIVE_LABEL": "inactive"}
{"COMPOUND": "Cc1cc(=O)oc2cc(O)c(CN(C)CC(=O)O)cc12", "QUALITATIVE_LABEL": "inactive"}
{"COMPOUND": "COc1ccc2nc3cc(Cl)ccc3c(NCCCN3CCN(CCCNc4ccc5nnn6c7ccccc7c(=O)c4c56)CC3)c2c1", "QUALITATIVE_LABEL": "active"}
{"COMPOUND": "COc1ccc(C2Cc3cc(OC)c(OC)c(OC)c3C2)cc1 (stereo not drawn)", "QUALITATIVE_LABEL": "inactive"}
{"COMPOUND": "COc1ccc(C(=O)OC2C=COC(C)C2OC(=O)c2ccc(OC)cc2)cc1 (stereo not drawn)", "QUALITATIVE_LABEL": "inactive"}
{"COMPOUND": "N=c1oc2c(Cl)cc(Cl)cc2cc1C(=O)Nc1cccc2ccccc12", "QUALITATIVE_LABEL": "inactive"}
{"COMPOUND": "COc1cc(/C=C2/C(=O)N(C(=O)OCC(C)C)C(Cc3cc(OC)c(OC)c(C)c3OC)C(=O)N2Cc2ccccc2)c(OC)c(C)c1OC (stereo not drawn)", "QUALITATIVE_LABEL": "inactive"}
{"COMPOUND": "O=C(Cn1c2c(c3ccccc31)CCCC2)N1CCCCC1", "QUALITATIVE_LABEL": "inactive"}
{"COMPOUND": "CC(Cl)CC(=O)OCC1CCCN2CCCCC12 (stereo not drawn)", "QUALITATIVE_LABEL": "inactive"}
{"COMPOUND": "O=C(CCc1ccccc1)NS(=O)(=O)c1ccccc1", "QUALITATIVE_LABEL": "inactive"}
{"COMPOUND": "COc1cc2c(cc1OC)CC(N=[N+]=[N-])c1cc(OC)c(OC)cc1/C=C\\2 (stereo not drawn)", "QUALITATIVE_LABEL": "inactive"}
{"COMPOUND": "CCC1CCCCN1CC(C(C)=O)C(c1ccccc1)c1c(O)c2ccccc2oc1=O (stereo not drawn)", "QUALITATIVE_LABEL": "inactive"}
{"COMPOUND": "Cc1ccc(S(=O)(=O)N2CCCSCCSCCCSCC2)cc1", "QUALITATIVE_LABEL": "inactive"}
{"COMPOUND": "CN(Cc1cc(Cl)cc(Cl)c1O)Cc1c(O)ccc2ccccc12", "QUALITATIVE_LABEL": "inactive"}
{"COMPOUND": "CC1ON2CCCC2[C@H]1C(=O)N1C2CC3CCC2(CS1(=O)=O)C3(C)C (stereo partly drawn)", "QUALITATIVE_LABEL": "inactive"}
{"COMPOUND": "COc1cc2c(cc1OC)C(=O)/C(=C/c1cc(Cl)cc(Cl)c1)C2", "QUALITATIVE_LABEL": "inactive"}
{"COMPOUND": "OC(c1ccc(F)cc1)C(F)(F)c1nc(-c2ccccc2)no1 (stereo not drawn)", "QUALITATIVE_LABEL": "inactive"}
{"COMPOUND": "COc1ccc2nc3ccc(OC)cc3c(S(=O)(=O)Cc3ccc([N+](=O)[O-])cc3)c2c1", "QUALITATIVE_LABEL": "inactive"}
{"COMPOUND": "Cc1ccc(C(=O)Nc2ccccc2)cc1/N=N/N(C)C", "QUALITATIVE_LABEL": "inactive"}
